Can you tell me GI50 for the items I'm about to list?
tested on: ACHN; assay: NCI tumour cell line growth inhibition, 48 h
Activity calls are given as the source filed them. Rule as the data show it: active = GI50 up to about 1.1 µM and inactive = higher.

// solved cases for GI50 follow
| Compound | Property name | Value observed |
| --- | --- | --- |
| CN(C)c1ccc(C2=C([O-])c3cc(-[n+]4ccccc4)ccc3C2=O)cc1 | GI50 | > 100 µM (inactive) |
| COC(=O)[C@]1(C)CCC[C@@]2(C)C1CCC1=C[C@@]3(C(C)C)CC[C@]12OO3 (stereo not given in full) | GI50 | 36.4 µM (inactive) |
| c1ccc([P+](CCN2Cc3ccccc3C2)(c2ccccc2)c2ccccc2)cc1 | GI50 | 5.69 µM (inactive) |
| O=C1/C(=C\c2ccc([N+](=O)[O-])o2)SC2NC(COc3ccc(Cl)cc3)=NN12 (stereo not given) | GI50 | 1.96 µM (inactive) |

Q: # get_value(readout='GI50', item= Cc1c(C=C(C#N)C#N)c(=O)n(C)c(=O)n1C )
Result: > 100 µM (inactive)

====

test system: MDA-MB-435; experiment: NCI tumour cell line growth inhibition, 48 h
Active and inactive are the calls of the source. No stated cut-off is given here; in the data, active = GI50 up to about 1.1 µM and inactive = higher.
Property name: GI50

Consider the worked cases shown below.
| Compound | GI50 |
| --- | --- |
| COc1cc2c(c(O)c1OC)CC1CCC(=O)N1C2c1cccc2ccccc12 (stereo not given) | 19.2 µM (inactive) |
| COc1c(O)c2ccccc2c2cc(O)ccc12 | 1 µM (active) |
| CC(=O)O[C@H]1C[C@H]2[C@@H](OC(C)=O)/C=C3\C[C@](C)(C(=O)[C@H](O)C(=C1C)C2(C)C)[C@@H](O)C[C@@H]3OC(=O)[C@H](O)[C@H](c1ccccc1)N(C)C | > 100 µM (inactive) |
| O=C(NCCc1n[nH]c2c1C(=O)C=C(Nc1ccccc1)C2=O)OCc1ccccc1 | > 100 µM (inactive) |
| CCOC(=O)CO/N=C\C1=CC(=O)C2CC1C2(C)C (stereo not given) | > 100 µM (inactive) |

Below are some compounds; for each one, tell me its GI50.
1. CNC(=O)Nc1ccccc1
2. Cc1cccc(/C=N/NC(=S)NCCc2ccccn2)n1
3. C[C@]12CC[C@H](O)CC1=CC[C@@H]1[C@@H]2CC[C@]2(C)C(=N/O)/C(=C/c3ccc([N+](=O)[O-])cc3)C[C@@H]12
4. N#Cc1ccc(Oc2nc3ccccc3nc2C(=O)O)cc1
5. COc1ccc2c(c1)/C(=C\c1c(Cl)nc3sc(C)cn13)C(=O)N2
6. CCC(CS(=O)(=O)O)[N+](=O)[O-] (stereo not given)

Result:
1: > 100 µM (inactive); 2: 27.4 µM (inactive); 3: 8.38 µM (inactive); 4: > 100 µM (inactive); 5: 0.286 µM (active); 6: > 100 µM (inactive)

====

tested on: SNB-75; test: NCI tumour cell line growth inhibition, 48 h
The source made the active and inactive calls. Cut-off read from the data, not from the text of the source: active = GI50 up to about 1.1 µM and inactive = higher.
Property name: GI50

| Molecule | Test system | GI50 |
| --- | --- | --- |
| CC[P+](c1ccccc1)(N(C)C)N(C)C | SNB-75 | > 100 µM (inactive) |

Below are 6 molecules. Give each one its GI50.
1. CC1CC/C(=C\c2ccc(N(C)C)cc2)C2=C1C(c1ccc(N(C)C)cc1)NC(=S)N2 (stereo unspecified)
2. Cc1c(/C=N/NC(=S)Nc2ccc([N+](=O)[O-])cc2)c(=O)n(-c2ccccc2)n1C
3. CN1C[C@@H]2CC(=O)CC[C@@H]2C[C@H]1C#N
4. O=S(=O)(O)c1ccc2c(/N=N/c3cccc4ccccc34)c(O)ccc2c1
5. C#CC(C)(C)OCCCCOc1cc(O)c2c(=O)c3ccccc3n(C)c2c1
6. C=CCc1cc2cccc(OC)c2oc1=O

Result:
1. > 100 µM (inactive)
2. 13.3 µM (inactive)
3. > 100 µM (inactive)
4. > 100 µM (inactive)
5. 84.5 µM (inactive)
6. 87.5 µM (inactive)

Give me GI50 for each of these molecules, listed below.
1. CNC(=S)N1CCN(C(C)=O)C1=S
2. NNC(=O)CNC(=O)c1ccc(Cl)cc1Cl
3. Cn1c2ccccc2c(=O)c2c(O)cc3c(c21)C=CC1(CCCC1)O3

Result:
1: 26.5 µM (inactive); 2: > 100 µM (inactive); 3: > 100 µM (inactive)

Q: Name the recorded GI50 for O=C(NCCc1n[nH]c2c1C(=O)C=C(Nc1ccccc1)C2=O)OCc1ccccc1 .
Result: > 100 µM (inactive)

====

tested on: SK-MEL-5; experiment: NCI tumour cell line growth inhibition, 48 h
The source made the active and inactive calls. Rule as the data show it: active = GI50 up to about 1.1 µM and inactive = higher.
Property name: GI50

| Molecule | GI50 |
| --- | --- |
| Cc1c(S(=O)(=O)O)ccc(/N=N/c2c(O)c(C(=O)O)cc3ccccc23)c1Cl | > 100 µM (inactive) |
| CCOP(=O)(OCC)C(N)Cc1ccc(OC)c(OC)c1 (stereo unspecified) | > 100 µM (inactive) |
| COc1cc(NC=C2C(=O)OC(C)(C)OC2=O)c(OC)c(C)c1OC | > 100 µM (inactive) |

Please report GI50 for every entry that follows.
1. Cc1cc2c(=O)cc(-c3ccc(C(=O)O)cc3)oc2c(C(=O)O)c1C
2. O=C(Nc1nnc(-c2c(Cl)c(Cl)c(Cl)c(Cl)c2-c2nc3cc(C(=O)c4ccccc4)ccc3[nH]2)o1)c1ccccc1
3. Clc1ccc(-c2ccc(-c3nn4c(CNc5ccccc5)nnc4s3)o2)c(Cl)c1
4. COc1ccc(-c2oc3c(OC)c(OC)c(OC)c(O)c3c(=O)c2OC)cc1OC
5. CON(C)C(C#N)=C(C#N)C#N
6. COc1cc(N(CCC#N)CCC#N)ccc1/C=C1\SC(=S)NC1=O
7. COc1ccc(-c2oc3cc(OC)c(OC)c(O)c3c(=O)c2OC)cc1

Result:
1. > 100 µM (inactive)
2. 5.07 µM (inactive)
3. 33.4 µM (inactive)
4. 9.71 µM (inactive)
5. > 10 µM (inactive)
6. > 100 µM (inactive)
7. > 100 µM (inactive)

# per-item lookup of GI50; items listed below
1. COc1ccc(C2=NNC(=O)c3ccccc3N2c2nc(-c3cccs3)nc3ccc(Br)cc23)cc1
2. COC1C(O)C(C)OC(OC2C(Oc3cccc4c(O)c5c(=O)oc6ccc(C)c7c(=O)oc(c34)c5c67)OC(C)C3O[C@H](c4ccccc4)OC32)C1O (stereo partly specified)
3. O=C(Nc1ccccc1[N+](=O)[O-])c1ccccc1
4. C=CCCN1CCc2c([nH]c3ccccc23)C1C(=O)O (stereo unspecified)
5. c1ccc2c(C3NCCc4nc[nH]c43)cccc2c1 (stereo unspecified)

Result:
1: > 100 µM (inactive); 2: 0.131 µM (active); 3: > 100 µM (inactive); 4: > 100 µM (inactive); 5: > 100 µM (inactive)

Could I get GI50 for every one of these entries?
1. CC1=C2C3OC(=O)C(C)C3CCC2(C)C=C/C1=N\c1ccccc1 (stereo unspecified)
2. O=[N+]([O-])c1ccc2nc(Cl)n[n+]([O-])c2c1
3. CC1(C)CCC[C@@]2(C)C1CC[C@@]1(CO)O[C@H](C3=CC(=O)OC3O)C[C@H]12 (stereo partly specified)

Result:
> 100 µM (inactive)
6.68 µM (inactive)
5.38 µM (inactive)

Batch request: GI50 per item, same order as input.
1. CN(C)c1ccc(C2=C([O-])c3cc(-[n+]4ccccc4)ccc3C2=O)cc1
2. Cc1ccc(/C=C/C(=O)c2c([O-])on[n+]2-c2ccccc2)cc1
3. CC(=O)NNC1=NN(C(C)=O)C2(S1)C(=O)Nc1ccc(Br)cc12 (stereo unspecified)

Result:
> 100 µM (inactive)
3.71 µM (inactive)
> 100 µM (inactive)

====

Kindly state GI50 for each of the entries shown.
system: M14; experiment: NCI tumour cell line growth inhibition, 48 h
Active and inactive are the calls of the source. Rule as the data show it: active = GI50 up to about 1.1 µM and inactive = higher.

Known results for compounds:
| Compound | Property name | Value observed |
| --- | --- | --- |
| O=C1NC2C(O)CCCCC2C12CCCCC2 (stereo not given) | GI50 | > 100 µM (inactive) |
| O=P1(Oc2ccccc2)N=P(c2ccccc2)(c2ccccc2)C=C(c2ccc(Cl)cc2)N1 (stereo not given) | GI50 | 7.67 µM (inactive) |

Consider the following items and state reported GI50 for each.
1. NC(=O)COC(=O)c1c(Cl)nc2sccn12
2. CO/C(=N\N=C\c1ccccc1F)c1ccncc1
3. COC(=O)[C@@]12C3=NO[C@]1(C(=O)OC)C(O[Si](C)(C)C(C)(C)C)[C@@H](OC(C)=O)[C@@H](OC(C)=O)[C@@H]2[C@@H](OCc1ccccc1)CC3 (stereo not given in full)

Result:
1. > 100 µM (inactive)
2. > 10 µM (inactive)
3. > 100 µM (inactive)
